Catalogue of MIC values
- Test system: Proteus mirabilis
- METHOD: In vitro antibacterial activity against Proteus mirabilis-R 119
- Assay type: functional
READOUT: MIC (µg/mL)

Cc1c(F)cc2c(=O)c(C(=O)O)cn3c2c1CC[C@H]3C ... 12.5
Cc1c(F)cc2c(=O)c(C(=O)O)cn3c2c1CCC3 ... 1.6
Cc1c(F)cc2c(=O)c(C(=O)O)cn3c2c1CC[C@@H]3C ... 0.4
Cc1c(F)cc2c(=O)c(C(=O)O)cn3c2c1CCC3C (racemic) [IBAFLOXACIN] ... 0.8
